Entry source: patent US8097650B2

- Tgt: hTASK-1 (Homo sapiens, UniProt O14649)
- Sequence (O14649 whole entry): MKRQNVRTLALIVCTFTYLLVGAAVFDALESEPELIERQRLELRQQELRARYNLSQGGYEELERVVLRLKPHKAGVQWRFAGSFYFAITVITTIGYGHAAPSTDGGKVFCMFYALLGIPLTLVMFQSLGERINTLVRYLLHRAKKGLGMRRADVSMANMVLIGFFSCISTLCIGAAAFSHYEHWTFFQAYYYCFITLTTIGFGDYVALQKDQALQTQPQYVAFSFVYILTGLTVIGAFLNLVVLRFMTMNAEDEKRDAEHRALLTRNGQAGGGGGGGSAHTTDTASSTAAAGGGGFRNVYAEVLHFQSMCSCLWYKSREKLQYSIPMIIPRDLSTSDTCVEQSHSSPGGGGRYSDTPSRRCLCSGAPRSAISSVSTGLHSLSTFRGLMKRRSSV
- Experiment: hTASK-1 current in CHO cells (ramp clamp, pH 8)
- Conditions: Tyrode's pH 8; read-out: EC50 for activation of TASK-1 current
pEC50: −log10 of the molar value.
Readout name: pEC50

**Q:** Name the reported pEC50 value associated with the molecule `CCCCCc1ccc(C=CC(=O)Nc2cc(Cl)ccc2C(=O)O)cc1`
**A:** ~5.10

###

- Tgt: TASK-1 (Mus musculus)
- Construct: endogenous in cells; host or cells: adult mouse ventricular myocytes (C57/B16 background; WT or PAFR KO)
- Sequence (O35111 whole entry): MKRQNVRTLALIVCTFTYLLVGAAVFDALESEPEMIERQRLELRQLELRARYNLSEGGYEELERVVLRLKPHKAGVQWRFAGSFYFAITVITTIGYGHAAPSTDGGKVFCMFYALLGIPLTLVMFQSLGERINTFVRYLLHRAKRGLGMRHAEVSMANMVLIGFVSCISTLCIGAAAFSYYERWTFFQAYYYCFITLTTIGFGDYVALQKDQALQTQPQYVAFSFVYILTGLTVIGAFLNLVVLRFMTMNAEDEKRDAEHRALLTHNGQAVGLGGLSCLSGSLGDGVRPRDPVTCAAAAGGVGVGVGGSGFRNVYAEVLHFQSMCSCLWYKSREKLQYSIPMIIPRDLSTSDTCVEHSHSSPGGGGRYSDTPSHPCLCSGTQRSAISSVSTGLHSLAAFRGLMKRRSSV
- Experiment: C-PAF-sensitive steady-state current in murine ventricular myocytes (voltage clamp)
- Type: cell-based
- Conditions: held at −10 mV, C-PAF 185 nM; Ba2+ 3 mM, Zn2+ 3 mM, lipids and ATFK 10 μM
Readout name: effect on C-PAF-sensitive current

> print(dat)
   compound.smiles                       readout.name                 result
1           [Ba+2]  effect on C-PAF-sensitive current  significantly reduced
2           [Zn+2]  effect on C-PAF-sensitive current  significantly reduced

###

- Tgt: mTRAAK (Mus musculus)
- Sequence (O88454 whole entry): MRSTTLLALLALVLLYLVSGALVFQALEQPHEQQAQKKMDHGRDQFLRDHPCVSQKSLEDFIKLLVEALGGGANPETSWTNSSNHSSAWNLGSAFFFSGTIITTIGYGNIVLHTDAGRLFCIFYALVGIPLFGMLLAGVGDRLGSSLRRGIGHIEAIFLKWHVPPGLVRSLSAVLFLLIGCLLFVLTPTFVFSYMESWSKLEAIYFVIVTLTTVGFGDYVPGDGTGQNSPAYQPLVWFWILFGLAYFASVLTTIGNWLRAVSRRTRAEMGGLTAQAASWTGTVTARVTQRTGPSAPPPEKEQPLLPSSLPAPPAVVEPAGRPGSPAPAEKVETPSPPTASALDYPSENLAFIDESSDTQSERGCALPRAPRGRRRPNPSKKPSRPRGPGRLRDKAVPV
- Experiment: mTRAAK current in HEK cells (ramp clamp)
- Conditions: read-out: EC50 for activation of TRAAK current
- Procedure: FIG. 21. CHO cells (hTREK-1, hTASK-1) or HEK cells (mTRAAK) were co-transfected with plasmids encoding one of the two pore domain channels and GFP using the GeneJammer reagent. After 48-60 h, the expressed current was measured using a ramp protocol while the cells were perfused with regular Tyrode's solution containing varying concentrations of ONO-RS-082 (range of concentration from 10 nM to 500 μM as noted in FIG. 21) until a steady state was reached. […]
Readout name: EC50

**Q:** Request: EC50, test system mTRAAK (Mus musculus), entry `CCCCCc1ccc(C=CC(=O)Nc2cc(Cl)ccc2C(=O)O)cc1`
**A:** ~900 nM
